Consider the following molecules; for each one, report its TGI.
system: 786-0 renal; assay: NCI tumour cell line growth inhibition, 48 h

Recorded TGI, per entry:
| Molecule | TGI |
| --- | --- |
| CSc1ccc(C2OC(=O)c3ccccc32)c2ccccc12 (stereo not given) | > 100 µM |
| N=c1c2c(C(N)=O)cn(C3OC(CO)C(O)C3O)c2ncn1O (stereo not given) | 1.08 µM |
| CCOC(=O)c1cc(NS(=O)(=O)c2ccccc2)cc(C(=O)OCC)c1 | > 100 µM |
| Cc1ccc(C(=O)c2nnc(C(=O)c3ccc(C)cc3)nn2)cc1 | > 100 µM |
| C/C(=N/NC(=S)Nc1ccc([N+](=O)[O-])cc1)c1cccc(/C(C)=N\NC(=S)Nc2ccc([N+](=O)[O-])cc2)n1 | 11.6 µM |

Record TGI for all entries; do not skip any.
1. CN(C)CCCNC(CC#N)CCC#N (stereo not given)
2. CC(C)(Br)C(Br)CCC(C)(Br)C(Br)CO (stereo not given)
3. COc1cc(/C=C/C(=O)c2ccc(NS(=O)(=O)c3cc([N+](=O)[O-])ccc3C)cc2)cc(OC)c1OC
4. O=C(NCCCCCCNC(=O)n1cc(F)c(=O)[nH]c1=O)NCCCOCCOCCOCCOCCOCCOCCOCCOCCOCCOCCOCCOCCOCCOCCOCCOCCOCCOCCOCCOCCOCCCNC(=O)C(O)C(O)C(O)C(O)CO (stereo not given)
5. CN(C)CCCNC(=O)CCNC(=O)c1cc(NC(=O)c2cc(NC(=O)c3cc(NC(=O)c4nc(NC(=O)CCCNC(=O)c5cc(NC(=O)c6cc(NC(=O)c7cc(NC(=O)c8nccn8C)cn7C)cn6C)cn5C)cn4C)cn3C)cn2C)cn1C

Response line:
> 10 µM
> 10 µM
7.14 µM
> 100 µM
> 100 µM

Please go through the list and note TGI for each molecule.
1. CCCCCCCCCCC(C(=O)O)C1(C(=O)O)CCC(=O)O1 (stereo not given)
2. COC(=O)C1=CC2CCCC1(O)C(C(C)=O)C2 (stereo not given)
3. COC(=O)C(CC12CC3CC(CC(C3)C1)C2)NC(=O)C(N)CC(=O)O (stereo not given)

Response line:
1: > 100 µM; 2: 41.3 µM; 3: > 100 µM

Would you mind giving TGI for every molecule in the list below?
1. CC(NNC(=O)c1ccncc1)c1ccc(F)cc1 (stereo not given)
2. Cc1ccc(N=Nc2c(O)c(C(=O)O)cc3ccccc23)cc1C

Response line:
["> 100 µM", "> 100 µM"]

Provide TGI values for the following items, in order.
1. CCOC(=O)N/N=C(/OCC)c1ccccc1
2. COc1cc2c(c(OC)c1)C1c3ccccc3NC(=O)N1CC2 (stereo not given)
3. C[C@]12CC[C@@H]3c4ccc(OP(=O)(O)O)cc4CC[C@H]3[C@@H]1CCC2=O
4. NNC(=O)/C(=C/c1ccc(Cl)cc1Cl)NC(=O)c1ccccc1
5. Cc1[nH]ccc2c1[nH]c1cc(=O)ccc12

Response line:
["> 100 µM", "> 100 µM", "> 100 µM", "> 100 µM", "> 100 µM"]

====

tested on: HL-60(TB) leukemia; assay: NCI tumour cell line growth inhibition, 48 h; in the data active means GI50 below about 0.43 µM; inactive means the rest
The reply should be one of these categories: y (active), n (inactive)

# count of solved cases: 5
| Compound | Test System | Class |
| --- | --- | --- |
| COc1cc2c(c(OC)c1)C1c3ccccc3NC(=O)N1CC2 (stereo not given) | HL-60(TB) leukemia | n |
| CCOC(=O)c1cc(NS(=O)(=O)c2ccccc2)cc(C(=O)OCC)c1 | HL-60(TB) leukemia | n |
| O=C1c2cccnc2C(=O)c2nc3cc(N4CCN(C5CC5)CC4)ccc3nc21 | HL-60(TB) leukemia | n |
| CCCC(C)c1cc(Cc2cc(Cl)cc(Cl)c2O)c(O)c(Cc2cc(Cl)cc(Cl)c2O)c1 (stereo not given) | HL-60(TB) leukemia | n |
| CCCCCCCCN=C(N)c1ccc(N2CCN(c3ccc(C(N)=NCCCCCCCC)cc3)CC2)cc1 | HL-60(TB) leukemia | n |

Prompt line: // return assay outcome for "COc1ccc(-c2c3c(N)nc(-c4ccncc4)nc3nc3c2c(C)nn3-c2ccccc2)cc1"
Response line: n

Prompt line: Cool, now "N=C(N)c1ccc(-c2ccc(-c3cc(Cl)cc(Cl)c3)o2)nc1"
Response line: n

Prompt line: Moving on to the next compound: "COc1cccc2c1c(C(=O)C(=O)Nc1cc(C)no1)cn2Cc1ccc(F)cc1"
Response line: n

Prompt line: Ok, now "COc1ccc2c(c1)/C(=C\c1c(C)nc3sccn13)C(=O)N2"
Response line: y

Prompt line: Repeat with CCCCC(CC)CN=C(N)NC(N)=NCCCCCCN=C(N)NC(N)=NCC(CC)CCCC (stereo not given)
Response line: n

====

Task for the reader: assign each of the following molecules its reported GI50.
system: HL-60(TB) leukemia; experiment: NCI tumour cell line growth inhibition, 48 h

Before answering, review these 3 worked examples.
| Smi | Test System | Measurement Kind | Measurement |
| --- | --- | --- | --- |
| COc1ccc(-c2nn3c(-c4cc(F)c(Cl)cc4Cl)nnc3s2)cc1 | HL-60(TB) leukemia | GI50 | 15.6 µM |
| O=C1/C(=C\c2c[nH]c3ccccc23)c2ccccc2N1c1c(Cl)cccc1Cl | HL-60(TB) leukemia | GI50 | 1.55 µM |
| O=c1cc(-c2ccccc2)[nH]c2ccccc12 | HL-60(TB) leukemia | GI50 | 0.52 µM |

Give GI50 for each of the items listed below.
1. CC(C)c1cc(-c2n[nH]c(=O)n2-c2ccc3c(ccn3C)c2)c(O)cc1O
2. C=CCC[CH2][Sn]([c]1ccccc1)([c]1ccccc1)[c]1ccccc1
3. COc1cccc(-n2ncc3c(N/N=C/c4ccc(C(=O)NCCN(C)C)cc4)ncnc32)c1

Response line:
1: < 0.01 µM; 2: 5.29 µM; 3: 5.58 µM

====

Hi there, I'd appreciate the recorded TGI for every entry that follows.
test system: T-47D breast; assay: NCI tumour cell line growth inhibition, 48 h

Examples with answers:
| Compound | TGI |
| --- | --- |
| CCOC(=O)C1=[N+]([O-])OC2=C(O)CCCC21 (stereo not drawn) | > 100 µM |
| CC(=O)N1C(=O)/C(=C\C(=O)c2ccc([N+](=O)[O-])cc2)c2ccccc21 | 61.9 µM |

The record that follows has no TGI shown yet.
Prompt line: I have this compound here, "COC(=O)[C@H](C[C@H](Cc1ccccc1)NC(=O)c1csc([C@@H](C[C@H](C(C)C)N(C)C(=O)[C@@H](NC(=O)[C@H]2CCCCN2C)C(C)C)OC(C)=O)n1)NC(=O)OCc1ccccc1" , and I need its recorded TGI.
Response line: > 9 µM

====

system: ACHN renal; assay: NCI tumour cell line growth inhibition, 48 h
Measurement Kind: TGI

# example entries with known answers
| Compound | Test System | Measurement Kind | Measurement |
| --- | --- | --- | --- |
| O=C(/C=C/c1ccccc1)c1cc(Br)ccc1O | ACHN renal | TGI | 28.7 µM |
| O=C(/C=C/c1csc(-c2ccccc2)n1)NCc1ccc(C(=O)NCCc2ccccc2)cc1 | ACHN renal | TGI | > 100 µM |

Batch request: TGI per item, same order as input.
1. O=C1[C@H]2ON(c3ccccc3)C(c3ccccc3Cl)[C@H]2C(=O)N1c1ccc(Cc2ccc(N3C(=O)[C@@H]4ON(c5ccccc5)C(c5ccccc5Cl)[C@@H]4C3=O)cc2)cc1 (some centres undefined)
2. CCOC(=O)C(=[N+]=[N-])C(=O)C1(C(=O)OCC)CCN(C(=O)c2ccccc2)C1=O (centres undefined)
3. C/C(=N\NS(=O)(=O)c1ccccc1)c1ccc(Cl)c(Cl)c1
4. COc1ccc2nc(N/N=C/C(C)=N/Nc3cc(C)c4cc(OC)ccc4n3)cc(C)c2c1

Response line:
> 100 µM
> 100 µM
> 100 µM
55.3 µM

====

Task for the reader: assign each of the following molecules its reported TGI.
tested on: TK-10 renal; test: NCI tumour cell line growth inhibition, 48 h

Answered examples (3):
| Molecule | TGI |
| --- | --- |
| O=C1/C(=C\c2c[nH]c3ccccc23)c2ccccc2N1c1c(Cl)cccc1Cl | 5 µM |
| Cc1ccc(-c2cn3ccnc3c(-c3ccc(Cl)cc3)n2)cc1 | 24.8 µM |
| COc1ccc(-c2n/c(=C\c3c(O)[nH]c4ccc(OC)cc34)cc3c2=Nc2ccccc2-3)cc1 | 3.87 µM |

Batch of 2 molecules: report TGI for each.
1. O=c1c2nn3c(=O)n(-c4ccccc4)c(=O)c3nn2c(=O)n1-c1ccccc1
2. CCOC(CN=C=S)OCC

Response line:
> 100 µM
> 10 µM

# return TGI for each item in the list
1. COc1cc2c(c(OC)c1)C1c3ccccc3NC(=O)N1CC2 (stereo unspecified)
2. O=C1CC(c2ccc(O)cc2)C2(O1)C(=O)OC(C(O)CO)C2O (stereo unspecified)
3. CCCc1[nH]c(SCCCCCCCCSc2nc(-c3ccc(F)cc3)c(CCC)[nH]2)nc1-c1ccc(F)cc1
4. Cn1cnc(CCc2ccccc2)n1
5. CCCCCCCCCCC(C(=O)O)C1(C(=O)O)CCC(=O)O1 (stereo unspecified)
6. CCSCCC(N)C(=O)O (stereo unspecified)

Response line:
> 100 µM
> 100 µM
> 100 µM
> 100 µM
> 100 µM
> 100 µM
